The values you see were collected from ChEMBL document CHEMBL1128016.

- Tested on: Leishmania donovani
- test_method_notes: In vivo anti-leishmanial activity was determined against hamster amastigotes of Leishmania donovani
- Assay type: functional
- Design: concentration or dose not given beside the values
Entries whose Inhibition is below 60% take yes; entries at or above 60% take no.

Query block: Consider "Cc1ccc(-c2nc3n(c(=O)c2C#N)CCS3)cc1" . Does its Inhibition lie strictly below 60%?
Result block: no

Query block: Consider "COc1cccc(-c2nc(SCc3ccccc3)nc(O)c2C#N)c1" . Does its Inhibition lie strictly below 60%?
Result block: yes

Query block: Consider "COc1cccc(-c2nc3n(c(=O)c2C#N)CCS3)c1" . Does its Inhibition lie strictly below 60%?
Result block: no

Query block: Consider "Cc1cccc(-c2nc(SCc3ccccc3)nc(O)c2C#N)c1" . Does its Inhibition lie strictly below 60%?
Result block: yes

Query block: Consider "COc1cccc(-c2nc(SC)nc(Cl)c2C#N)c1" . Does its Inhibition lie strictly below 60%?
Result block: yes

Query block: Consider "CCc1nc(SCc2ccc(Cl)cc2)nc(O)c1C#N" . Does its Inhibition lie strictly below 60%?
Result block: no

Query block: Consider "C=CCSc1nc(O)c(C#N)c(-c2cccc(OC)c2)n1" . Does its Inhibition lie strictly below 60%?
Result block: no

Query block: Consider "N#Cc1c(O)nc(S)nc1-c1ccc(F)cc1" . Does its Inhibition lie strictly below 60%?
Result block: no

Query block: Consider "C=CCSc1nc(O)c(C#N)c(-c2ccc(C)cc2)n1" . Does its Inhibition lie strictly below 60%?
Result block: no

Query block: Consider "CSc1nc(-c2ccc(C)cc2)c(C#N)c(=O)n1C" . Does its Inhibition lie strictly below 60%?
Result block: yes

Query block: Consider "Cc1ccc(-c2nc(SCc3ccccc3)[nH]c(=O)c2C#N)cc1" . Does its Inhibition lie strictly below 60%?
Result block: no

Query block: Consider "Cc1ccc(-c2nc3n(c(=O)c2C#N)CCCS3)cc1" . Does its Inhibition lie strictly below 60%?
Result block: no

Query block: Consider CCC1NC(=S)NC(=O)C1C#N (stereo not drawn) . Does its Inhibition lie strictly below 60%?
Result block: no

Query block: Consider "N#Cc1c(O)nc(S)nc1-c1ccccc1Cl" . Does its Inhibition lie strictly below 60%?
Result block: yes

Query block: Consider "N#Cc1c(Nc2ccc(F)cc2)nc(SCc2ccccc2)nc1-c1cccnc1" . Does its Inhibition lie strictly below 60%?
Result block: no

Query block: Consider "CSc1nc(Cl)c(C#N)c(-c2ccc(C)cc2)n1" . Does its Inhibition lie strictly below 60%?
Result block: yes

Query block: Consider "N#Cc1c(Nc2ccccc2)nc(SCc2ccccc2)nc1-c1cccnc1" . Does its Inhibition lie strictly below 60%?
Result block: yes

Query block: Consider "N#Cc1c(O)nc(SCc2ccc(Cl)cc2)nc1-c1cccnc1" . Does its Inhibition lie strictly below 60%?
Result block: no

Query block: Consider "COc1cccc(-c2nc(SCc3ccc(Cl)cc3)nc(O)c2C#N)c1" . Does its Inhibition lie strictly below 60%?
Result block: no

Query block: Consider "COc1cccc(-c2nc(S)nc(O)c2C#N)c1" . Does its Inhibition lie strictly below 60%?
Result block: no

Query block: Consider "Cc1ccc(-c2nc(S)nc(O)c2C#N)cc1" . Does its Inhibition lie strictly below 60%?
Result block: no

Query block: Consider "COc1cccc(-c2nc3n(c(=O)c2C#N)CCCS3)c1" . Does its Inhibition lie strictly below 60%?
Result block: no
